Molecular target: T1, cynomolgus monkey DLL4 extracellular domain (cynomolgus monkey)
T1 construct: extracellular domain; also called cynoDLL4 ECD; Cyno DLL4
Assay: SPR (Biacore)
experimental endpoint: pKd
// pKd is dimensionless: -log10 of concentration (M)

binder	measured value
h1A11.A2 (antibody, V domains shown, also called h1A11VH.1 / h1A11.A2 VL) VH: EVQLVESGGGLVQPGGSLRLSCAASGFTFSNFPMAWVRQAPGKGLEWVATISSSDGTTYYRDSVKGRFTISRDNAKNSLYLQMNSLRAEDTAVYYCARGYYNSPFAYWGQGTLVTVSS VL: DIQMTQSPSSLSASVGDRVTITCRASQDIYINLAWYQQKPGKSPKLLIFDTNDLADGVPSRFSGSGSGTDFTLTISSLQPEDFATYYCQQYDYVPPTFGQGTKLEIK	8.41

Now look at this one.
Field request: pKd | item: h1A11.A8 (antibody, V domains shown, also called h1A11.A8 VH / h1A11VL.1) VH: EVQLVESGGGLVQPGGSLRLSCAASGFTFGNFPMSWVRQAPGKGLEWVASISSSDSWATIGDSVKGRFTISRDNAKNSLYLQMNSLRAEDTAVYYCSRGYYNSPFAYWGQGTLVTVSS VL: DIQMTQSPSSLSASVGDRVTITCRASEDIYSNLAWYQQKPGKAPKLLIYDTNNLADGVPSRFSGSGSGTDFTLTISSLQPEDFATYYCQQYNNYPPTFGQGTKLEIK 9.82
